Sourced from ChEMBL document CHEMBL1122681

System: Canis familiaris
measurement.description: Compound was evaluated for diuretic activity, in female mongrel dogs by measuring volume of urine, after iv administration of 5 mg/kg (control/compound treatment results) Control = 1
Format: ADME, organism-based, Canis lupus familiaris
Design: dose 5 mg/kg, route intravenous
test.context: dog, in vivo
Please provide measured Urine volume for the entries that follow.
Respond with the bare value in mL/min.

Reported Urine volume for CCC1(CC)C(=O)c2cc(OCC(=O)O)c(C)c(Cl)c2C1=O was 2

Entry CCC1(CC)C(=O)c2cc(OCC(=O)O)c(C)c(C)c2C1=O — recorded Urine volume = 2

Urine volume for CCC1(C)C(=O)c2cc(OCC(=O)O)c(Cl)c(Cl)c2C1=O (centres undefined) is 2

What the record says about NS(=O)(=O)c1cc(C(=O)O)c(NCc2ccco2)cc1Cl [FUROSEMIDE] : Urine volume is 3

====

Field: Activity. Provide a value for each of the compounds that follow.
System: Canis familiaris
measurement.description: Compound was evaluated for diuretic activity, administered orally in female mongrel dogs (5 mg/kg) measured as milliequivalents of Cl-
Assay type: functional, Canis lupus familiaris, Urine
Reply with just the number.

For CCC1C(=O)c2cc(OCC(=O)O)c(C)c(C)c2C1=O (stereo unspecified) the compound record lists Activity as 8

Activity for CC1(c2ccccc2)Cc2cc(OCC(=O)O)c(Cl)c(Cl)c2C1=O (stereo unspecified) [INDACRINONE] is 26

Sure, the documented Activity for NS(=O)(=O)c1cc(C(=O)O)c(NCc2ccco2)cc1Cl [FUROSEMIDE] is 8

So, NS(=O)(=O)c1cc2c(cc1Cl)NCNS2(=O)=O [HYDROCHLOROTHIAZIDE] ? Its Activity was 7

Entry CCC1(CC)C(=O)c2cc(OCC(=O)O)c(C)c(Cl)c2C1=O — recorded Activity = 10

Note to self: Activity recorded for Cc1c(OCC(=O)O)cc2c(c1Cl)C(=O)C1(CCCC1)C2=O [(ACYLARYLOXY)ACETIC ACID] was 3

====

Answer each item with its documented Increase.
Tested on: Pan troglodytes
measurement.description: Compound was evaluated for diuretic activity in chimpanzee measured as increase in the number of microequivalents of K+ /min at 5 mg/kg
Type: functional, Urine
No unit in the answer, only the number.

Looking up CC1(c2ccccc2)Cc2cc(OCC(=O)O)c(Cl)c(Cl)c2C1=O (stereo not given) , I found its Increase recorded as 53

Field Increase (entry NS(=O)(=O)c1cc2c(cc1Cl)NCNS2(=O)=O [HYDROCHLOROTHIAZIDE] ) reads 93

The compound identified as CCC1(CC)C(=O)c2cc(OCC(=O)O)c(C)c(Cl)c2C1=O registered its Increase at 132

The measured Increase associated with CCC1C(=O)c2cc(OC)c(Cl)c(Cl)c2C1=O (stereo not given) reads 27

The compound listed as CCC1(CC)C(=O)c2cc(OCC(=O)O)c(C)c(C)c2C1=O has a reported Increase of 32

====

What Urine volume was measured for each of the following?
Test system: Canis familiaris
measurement.description: Compound was evaluated for diuretic activity, in female mongrel dogs by measuring volume of urine, after iv administration of 5 mg/kg (control/compound treatment results) Control = 2
Type: ADME, organism-based, Canis lupus familiaris
Parameters: dose 5 mg/kg, route intravenous
test.context: dog, in vivo
The reply should contain only the number, in mL/min.

Urine volume measured on NS(=O)(=O)c1cc2c(cc1Cl)NCNS2(=O)=O [HYDROCHLOROTHIAZIDE] = 3

// field: Urine volume; key: CC1(c2ccccc2)Cc2cc(OCC(=O)O)c(Cl)c(Cl)c2C1=O (stereo not given) ; value = 8

get_value(item= Cc1c(OCC(=O)O)cc2c(c1Cl)C(=O)C1(CCCC1)C2=O , readout=Urine volume) returns 5

Cc1c(OCc2nn[nH]n2)cc2c(c1Cl)C(=O)C1(CCCC1)C2=O has a reported Urine volume of 3

Entry Cc1c(OCC(=O)O)cc2c(c1Cl)C(=O)C(C)(C1CCCC1)C2=O (stereo not given) , Urine volume reported as 2

====

Could you please report measured Activity for the items listed next?
Tested on: Rattus norvegicus
measurement.description: Compound was evaluated for diuretic activity administered orally in female rats measured as milliequivalents of Cl-x 100 / cage at 81 mg/kg
Type: functional, Urine
test.context: route oral
Lab note: write the figure by itself, no unit.

Activity reading for CC1(c2ccccc2)Cc2cc(OCC(=O)O)c(Cl)c(Cl)c2C1=O (centres undefined) : 303

Looking up NS(=O)(=O)c1cc2c(cc1Cl)NCNS2(=O)=O [HYDROCHLOROTHIAZIDE] , I see its Activity listed as 163

Field Activity (entry CCC1(C)C(=O)c2cc(OCC(=O)O)c(Cl)c(Cl)c2C1=O (centres undefined) ) reads 250

Briefly, Activity measured for CCC1(CC)C(=O)c2cc(OCC(=O)O)c(C)c(Cl)c2C1=O : 369

====

System: Rattus norvegicus
measurement.description: Compound was evaluated for diuretic activity administered orally in female rats measured as milliequivalents of K+x 100 / cage at 81 mg/kg
Format: functional, Urine
test.context: route oral
So I've got a bunch of compounds here, and I need their Activity values.
# answer = number (no unit)

Reported Activity ( CC1(c2ccccc2)Cc2cc(OCC(=O)O)c(Cl)c(Cl)c2C1=O (stereo not given) ) = 85

Form field Activity, entry CCC1(CC)C(=O)c2cc(OCC(=O)O)c(C)c(Cl)c2C1=O : 106

Quick note, Activity for CCC1(C)C(=O)c2cc(OCC(=O)O)c(Cl)c(Cl)c2C1=O (stereo not given) landed at 89

The compound Cc1c(OCC(=O)O)cc2c(c1Cl)C(=O)C(C)(C1CCCC1)C2=O (stereo not given) showed Activity equal to 36

get_value(item= NS(=O)(=O)c1cc(C(=O)O)c(NCc2ccco2)cc1Cl [FUROSEMIDE] , readout=Activity) returns 97
